# Tested on: OVCAR-8 ovarian
# assayName: NCI-60 one-dose screen, 48 h (100 = growth as untreated, 0 = no growth, -100 = all killed)
# measurementSetup: 10 µM unless noted
The panel holds about 83,000 compounds, 20% with a hit somewhere; the sample as a whole holds those more often.
# growth per entry
Report the figure in % without appending any unit label.

molecule	assayedTarget	growth [%]
O=C(CSc1nnc(-c2ccc(-c3nc4ccccc4[nH]3)cc2)o1)Nc1ccccc1	OVCAR-8 ovarian	31.5
COc1ccc2[nH]cc(-c3cc4nc(-c5cn(C)c6ncc(Br)cc56)cc(N)n4n3)c2c1	OVCAR-8 ovarian	-55.2
COC(=O)c1c(C(=O)OC)c2ccc3c4ccccc4ccc3n2c1C(=O)OC	OVCAR-8 ovarian	107
CCN1CCN(Cc2ccc(C(=O)Nc3cccc(Nc4ccc5c(OC)cccc5n4)c3)cc2C(F)(F)F)CC1	OVCAR-8 ovarian	-66.1
COc1cccc(NC(=O)c2ccc(NC(=O)CCl)s2)c1	OVCAR-8 ovarian	10.2

# ---- query molecule ----
Quick check: growth of N#C/C(=C/c1ccc(Cl)cc1)c1nnc(NC(=O)c2ccc(-n3c(=O)[nH]c4ccccc4c3=O)cc2)s1 ?
46

Value source: PubChem BioAssay (NCI)
